# Protocol summary: Stability of pigment
# Assay type: physicochemical
Readout kind: ST: Stability of pigment

[ask] Tell me the measured ST: Stability of pigment of COc1cc(N(CCCCS(=O)(=O)O)CCCCS(=O)(=O)O)c(C)cc1NC(=O)[C@@H](N)CC(C)C , please.
[reply] > 98%

[ask] And then CC(C)C[C@H](N)C(=O)Nc1ccc(N(C)CCCS(=O)(=O)O)cc1 , what is it?
[reply] > 96%

[ask] Also check N[C@@H](CCC(=O)Nc1ccc(N(CCCS(=O)(=O)O)CCCS(=O)(=O)O)cc1)C(=O)O
[reply] > 98%

[ask] Next entry: CC(C)C[C@H](N)C(=O)Nc1ccc(N(CCS(=O)(=O)O)CCS(=O)(=O)O)c(C#N)c1
[reply] 95%

###

# Test system: leucine aminopeptidase (LAP)
# Protocol summary: LAP determination in serum, absorption change per minute (Example 1)
# Assay type: biochemical
# Study conditions: Serum (5); same wavelengths
Readout kind: amount of absorption change per minute
Enter a number only.

[ask] Query for leucine aminopeptidase (LAP): what amount of absorption change per minute does the record show for CCN(CC)c1ccc(NC(=O)[C@@H](N)CC(C)C)cc1 [(c), L-leucil-p-N,N-- diethylaminoanilide] ?
[reply] 0.0116

[ask] And the next one, CC(C)C[C@H](N)C(=O)Nc1ccc(O)c(C(=O)O)c1 [(a), L-leucil-3-carboxy-4-hydroxyanilide] ?
[reply] 0.0148

[ask] Also check CC(C)C[C@H](N)C(=O)Nc1ccc(N(CCCS(=O)(=O)O)CCCS(=O)(=O)O)cc1
[reply] 0.0382

[ask] Lookup CC(C)C[C@H](N)C(=O)Nc1ccc([N+](=O)[O-])cc1 [(b), L-leucil-p-nitroanilide]
[reply] 0.0071

###

# Protocol summary: Stability of pigment
# Assay type: physicochemical
For each entry below, report its ST: Stability of pigment value.

[ask] Reported ST: Stability of pigment for CCN(CC(O)CS(=O)(=O)O)c1ccc(NC(=O)[C@@H](N)CC(C)C)cc1 (some centres unmarked) : what is it?
[reply] > 98%

[ask] Please give the result for CCN(CC(O)CS(=O)(=O)O)c1ccc(NC(=O)CC[C@H](N)C(=O)O)cc1 (some centres unmarked) too.
[reply] > 98%

[ask] Same question, N[C@@H](CCC(=O)Nc1ccc(N(CCCS(=O)(=O)O)CCCS(=O)(=O)O)c(S(=O)(=O)O)c1)C(=O)O this time
[reply] 93%

[ask] Field entry: COC(=O)c1cc(NC(=O)[C@@H](N)CC(C)C)ccc1N(CCCCS(=O)(=O)O)CCCCS(=O)(=O)O
[reply] > 98%

[ask] Next entry: CC(C)C[C@H](N)C(=O)Nc1ccc(N(CCCS(=O)(=O)O)CCCS(=O)(=O)O)c(S(=O)(=O)O)c1
[reply] 93%

[ask] Then this compound: CC(C)C[C@H](N)C(=O)Nc1ccc(O)c(C(=O)O)c1 [Control, reference compound]
[reply] 90%

[ask] Thanks! And Cc1cc(NC(=O)[C@@H](N)CC(C)C)ccc1N(CCS(=O)(=O)O)CCS(=O)(=O)O ?
[reply] > 98%

[ask] Another compound to check: CC(C)C[C@H](N)C(=O)Nc1ccc(N(CCCS(=O)(=O)O)CCCS(=O)(=O)O)c(Cl)c1
[reply] > 98%

[ask] Now this one: CN(CCCS(=O)(=O)O)c1ccc(NC(=O)CC[C@H](N)C(=O)O)cc1
[reply] > 96%

[ask] Again, but for CC(C)C[C@H](N)C(=O)Nc1ccc(N(CCCS(=O)(=O)O)CCCS(=O)(=O)O)cc1
[reply] > 98%

[ask] Now this one: N[C@@H](CCC(=O)Nc1ccc(N(CCCS(=O)(=O)O)CCCS(=O)(=O)O)c(Cl)c1)C(=O)O
[reply] > 98%

###

Could you please report measured amount of absorption change per minute for the items listed next?
# System: leucine aminopeptidase (LAP)
# Protocol summary: LAP determination in serum, absorption change per minute (Example 1)
# Assay type: biochemical
# Study conditions: Serum (9); same wavelengths

[ask] What value of amount of absorption change per minute has been recorded for this entry: CC(C)C[C@H](N)C(=O)Nc1ccc(N(CCCS(=O)(=O)O)CCCS(=O)(=O)O)cc1
[reply] 0.0537

[ask] And CC(C)C[C@H](N)C(=O)Nc1ccc(O)c(C(=O)O)c1 [(a), L-leucil-3-carboxy-4-hydroxyanilide] ?
[reply] 0.0190

[ask] Next record, please: CCN(CC)c1ccc(NC(=O)[C@@H](N)CC(C)C)cc1 [(c), L-leucil-p-N,N-- diethylaminoanilide]
[reply] 0.0138

[ask] And what about the compound CC(C)C[C@H](N)C(=O)Nc1ccc([N+](=O)[O-])cc1 [(b), L-leucil-p-nitroanilide] ?
[reply] 0.0082

###

# Protocol summary: Solubility of substrate
# Type: physicochemical
# Study conditions: read-out: S: Solubility
Assignment: determine reported solubility for the given molecules.

[ask] Look up solubility for this molecule: CC(C)C[C@H](N)C(=O)Nc1ccc(N(CCS(=O)(=O)O)CCS(=O)(=O)O)c(C#N)c1 [compound 11]
[reply] > 200 mg/mL

[ask] Next entry: CCN(CC(O)CS(=O)(=O)O)c1ccc(NC(=O)[C@@H](N)CC(C)C)cc1 (some centres unmarked) [compound 6]
[reply] 90 mg/mL

[ask] For N[C@@H](CCC(=O)Nc1ccc(N(CCCS(=O)(=O)O)CCCS(=O)(=O)O)c(Cl)c1)C(=O)O [compound 9] then?
[reply] > 200 mg/mL

[ask] Thanks! And N[C@@H](CCC(=O)Nc1ccc(N(CCCS(=O)(=O)O)CCCS(=O)(=O)O)cc1)C(=O)O [compound 1] ?
[reply] > 200 mg/mL

[ask] Try this molecule too: CCN(CC(O)CS(=O)(=O)O)c1ccc(NC(=O)CC[C@H](N)C(=O)O)cc1 (some centres unmarked) [compound 5]
[reply] 170 mg/mL

[ask] Would you mind doing CC(C)C[C@H](N)C(=O)Nc1ccc(O)c(C(=O)O)c1 [Control, reference compound] as well?
[reply] < 20 mg/mL

[ask] How about this molecule: COc1cc(N(CCCCS(=O)(=O)O)CCCCS(=O)(=O)O)c(C)cc1NC(=O)[C@@H](N)CC(C)C [compound 14]
[reply] > 200 mg/mL

[ask] Next molecule up: CN(CCCS(=O)(=O)O)c1ccc(NC(=O)CC[C@H](N)C(=O)O)cc1 [compound 3]
[reply] 80 mg/mL

###

# Protocol summary: Maximum wavelength of formed pigment
# Assay type: physicochemical
Hi, to clarify the labels: Yes covers λmax: Maximum wavelength from 700 nm upward, No covers anything below 700 nm.

[ask] Answer whether λmax: Maximum wavelength of CCN(CC(O)CS(=O)(=O)O)c1ccc(NC(=O)[C@@H](N)CC(C)C)cc1 (some centres unmarked) [compound 6] is greater than or equal to 700 nm.
[reply] Yes

[ask] // same read-out, input: N[C@@H](CCC(=O)Nc1ccc(N(CCCS(=O)(=O)O)CCCS(=O)(=O)O)cc1)C(=O)O [compound 1]
[reply] Yes

[ask] Please give the result for CN(CCCS(=O)(=O)O)c1ccc(NC(=O)CC[C@H](N)C(=O)O)cc1 [compound 3] too.
[reply] Yes

[ask] // next record CC(C)C[C@H](N)C(=O)Nc1ccc(N(C)CCCS(=O)(=O)O)cc1 [compound 4]
[reply] Yes

[ask] Now consider CC(C)C[C@H](N)C(=O)Nc1ccc(O)c(C(=O)O)c1 [Control, reference compound] and answer again.
[reply] No

###

# System: leucine aminopeptidase (LAP)
# Protocol summary: LAP determination in serum, absorption change per minute (Example 1)
# Assay type: biochemical
# Study conditions: Serum (2); same wavelengths
Readout kind: amount of absorption change per minute

[ask] Entry CCN(CC)c1ccc(NC(=O)[C@@H](N)CC(C)C)cc1 [(c), L-leucil-p-N,N-- diethylaminoanilide] : reported amount of absorption change per minute = ?
[reply] 0.0095

[ask] What do we get for CC(C)C[C@H](N)C(=O)Nc1ccc(O)c(C(=O)O)c1 [(a), L-leucil-3-carboxy-4-hydroxyanilide] ?
[reply] 0.0127

[ask] What about this compound? CC(C)C[C@H](N)C(=O)Nc1ccc([N+](=O)[O-])cc1 [(b), L-leucil-p-nitroanilide]
[reply] 0.0054

[ask] Consider next the compound CC(C)C[C@H](N)C(=O)Nc1ccc(N(CCCS(=O)(=O)O)CCCS(=O)(=O)O)cc1 in the same way.
[reply] 0.0395

###

Exercise: for every item that follows, state its recorded λmax: Maximum wavelength.
# Protocol summary: Maximum wavelength of formed pigment
# Type: physicochemical
Only the number, expressed in nm, is required.

[ask] Look at this compound and give its reported λmax: Maximum wavelength. N[C@@H](CCC(=O)Nc1ccc(N(CCCS(=O)(=O)O)CCCS(=O)(=O)O)c(Cl)c1)C(=O)O [compound 9]
[reply] 685

[ask] And Cc1cc(NC(=O)[C@@H](N)CC(C)C)ccc1N(CCS(=O)(=O)O)CCS(=O)(=O)O [compound 12] ?
[reply] 715

[ask] Now the compound COc1cc(N(CCCCS(=O)(=O)O)CCCCS(=O)(=O)O)c(C)cc1NC(=O)[C@@H](N)CC(C)C [compound 14]
[reply] 720

[ask] Please give the result for CC(C)C[C@H](N)C(=O)Nc1ccc(N(CCCS(=O)(=O)O)CCCS(=O)(=O)O)c(Cl)c1 [compound 10] too.
[reply] 685
